Assay: HUVEC growth inhibition – cell-based, human, primary screen (AID 575);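 further: 100% = median of untreated cell wells with 0.1% DMSO on each plate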
Conditions: HUVEC proliferation, CellTiter-Glo luminescence, 72 h; at 10 µM; stronger effect = lower value
Value kind: viability (%)
Express it in %; write the number only.

Example entries and their recorded answers appear below.
1. COC(=O)c1[nH]c(C)c(/C(O)=C2\C(=O)C(=O)N(CCN(C)C)C2c2ccccc2OC)c1C (centres undefined) = 79
2. Cc1ccc(N2C(N)=NC(N)=NC23CCCC3)c(C)c1 = 99.8
3. CC(C)CN(CC(C)C)c1nc(N)c(C#N)c(CC#N)c1C#N = 114
4. CCc1ncc(C(O)c2cccc(OC)c2OC)n1C (centres undefined) = 101
5. O=C1COc2ccc(C(=O)COC(=O)CCc3ccc(S(=O)(=O)N4CCOCC4)cc3)cc2N1 = 80.3
6. Cc1ccc(-c2nnc(-c3cccc(Br)c3)o2)cc1 = 99.7
7. O=C(CSc1nnc(NC(=O)C2CCC2)s1)NC1CC1 = 106
8. Cc1nc(SCC(=O)Nc2cc(C)on2)c2c3c(sc2n1)CCCC3 = 78.5

// switching to the query compound
[in] Given COc1ccccc1OCc1nc2ccccc2[nH]1 , state its recorded viability.
[out] 88.5

###

Here the recorded viability is given for each entry.
Assay: SK-BR-3 cell growth inhibitors, pilot screen, 24 h, human (AID 572);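 further: compound exposure lasted between 18 and 24 h rather than exactly 24 h; 100% = carrier-treated control wells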
Details: SK-BR-3 viability, CellTiter-Glo luminescence, at 10 µM, stronger effect = lower value
Express it in %; write the number only.

Example entries and their recorded answers appear below.
1) O=C(CSc1nccn1Cc1ccccc1)Nc1nccs1 = 90
2) Cc1ccc(C)c(N2CCN(Cc3nnnn3C3CCCCC3)CC2)c1 = 94
3) N#Cc1c(N2CCCC2)nc(N)c2c(N)nc(N3CCCC3)cc12 = 82

[in] Given COCCNC(=O)c1c(N)n(/N=C/c2cccs2)c2nc3ccccc3nc12 , state its recorded viability.
[out] 110

[in] CCN=C1SC(CC(=O)Nc2ccccc2OCC)C(=O)N1CC (configuration not stated) , same question.
[out] 96

[in] Cc1cc(C)cc(C(=O)N2CCC(C(N)=O)CC2)c1 , same question.
[out] 91

[in] COCc1nnc(NC(=O)c2ccc(NC(C)=O)cc2)s1 , same question.
[out] 100

[in] COCCNC(=O)c1snc2ccc(Cl)cc12 , same question.
[out] 89

[in] Cc1cc(C)cc(OCC(=O)NC2=NCCS2)c1 , same question.
[out] 100

[in] CCN(CC(=O)NC1CCS(=O)(=O)C1)C(=O)C(c1ccccc1)c1ccccc1 (configuration not stated) , same question.
[out] 119

[in] Cn1c(=O)n(Cc2ccccc2)c(=O)c2c1nc(NCC1CCCO1)n2Cc1ccccc1 (configuration not stated) , same question.
[out] 81.5

[in] CCCCCC#CCC#CCC#CCC#CCCCC(=O)O , same question.
[out] 152

###

Here the recorded viability is given for each entry.
Experiment: reversal of MRP1-mediated doxorubicin resistance, pilot screen, H69AR cells, doxorubicin co-treatment (AID 601)
Details: H69AR cells + 2 uM doxorubicin, CellTiter-Glo, 72 h; measured here: viability with 2 uM doxorubicin; at 10 µM; stronger effect = lower value
Express it in %; write the number only.

Example entries and their recorded answers appear below.
1. COc1ccccc1Cn1c(-c2ccco2)nc2nc3ccccc3nc21 = 52.6
2. COc1cc2c(cc1OC)C(/C(C#N)=N\O)=NC(C)(C)C2 = 91.6
3. COc1cc(C)nc(N2CCCC(C(=O)Nc3cccc(Cl)c3Cl)C2)n1 (configuration not stated) = 58.3
4. Cc1ccc(-c2nn[nH]n2)cc1 = 111
5. O=C(NCC1CCCO1)C1CC(c2ccc(Cl)c(Cl)c2)=NO1 (configuration not stated) = 105
6. CCCc1cc(=O)n2[nH]cnc2n1 = 96.6

[in] Given CCOCC(=O)Nc1nc2ccc(OC)cc2s1 , state its recorded viability.
[out] 81.5

###

Assay: growth suppression of yeast trafficking mutant, preliminary HTS, modulators of trafficking downstream of Golgi apparatus project, 1536-format plate, OD 615 nm (AID 637)
Settings: yeast transport mutant growth, absorbance 615 nm, 18 h; stronger effect = higher value
Calls of active or inactive are those of the source. Rule as the data show it: active = inhibition above about 30%; inactive = the rest.
Value kind: inhibition

1. COc1ccc(-n2c(SCC(=O)N3CCCCC3C)nnc2-c2cccnc2)cc1 (centres undefined) = 2% (inactive)
2. C/C=C(\CS(=O)(=O)c1ccccc1)S(=O)(=O)c1ccccc1 = -4.26% (inactive)
3. COc1cc(SC)ccc1C(=O)Nc1ccccc1C#N = 0.91% (inactive)
4. Cn1cnc2c1c(=O)[nH]c(=O)n2C = 6.33% (inactive)
5. O=C(c1cnc2sccn2c1=O)N1CCc2ccccc2C1 = -4.36% (inactive)
6. COc1ccc2c(c1)c(CC(=O)O)c(C)n2C(=O)c1ccc(Cl)cc1 = 0.5% (inactive)
7. Cc1cc(C)n(Cc2nc3ccccc3n2C)n1 = 4.92% (inactive)
8. COc1ccc(OC)c(Nc2ncnc3c2cnn3-c2ccccc2)c1 = -5.87% (inactive)

[in] Given CCOCC(O)CS(=O)Cc1ccccc1 (centres undefined) , state its recorded inhibition.
[out] -4.55% (inactive)

[in] COc1ccc(C(C(C(=O)c2cccs2)N2CCOCC2)N2CCOCC2)cc1OC (centres undefined) , same question.
[out] 0% (inactive)

[in] CSc1nc(N2CCOCC2)c2c(c1C#N)CCCCC2 , same question.
[out] 17.9% (inactive)

[in] NC(N)=Nc1nc(CSCC/C(N)=N/S(N)(=O)=O)cs1 , same question.
[out] 5.33% (inactive)

[in] CC1CN(CC(O)COc2ccccc2C(C)(C)C)CC(C)O1 (centres undefined) , same question.
[out] 0.49% (inactive)

###

Assay: growth suppression of yeast trafficking mutant, preliminary HTS, modulators of trafficking downstream of Golgi apparatus project, 1536-format plate, OD 615 nm (AID 637)
Settings: yeast transport mutant growth, absorbance 615 nm, 18 h; stronger effect = higher value
Value kind: inhibition (%)
Express it in %; write the number only.

Example entries and their recorded answers appear below.
1) CC12C(=O)N(CCC(=O)O)C(=O)C1C1C=CC2C1 (stereo unspecified) = 2.86
2) COc1ccc(CCN(C)CCCC(C#N)(c2cc(OC)c(OC)c(OC)c2)C(C)C)cc1OC (stereo unspecified) = -1.17
3) Cc1cccc(-n2ncc3c(NCc4ccccn4)ncnc32)c1 = -4.6
4) c1ccc(-c2ccc(-c3ccccn3)nn2)nc1 = -0.63
5) O=C(Nc1nonc1NC(=O)C1CCCCC1)C1CCCCC1 = 1.94
6) C=CCc1ccccc1OCC(O)CN1CCN(Cc2ccc3c(c2)OCO3)CC1 (stereo unspecified) = 58.4
7) Cc1ccc(S(=O)(=O)N2CCCC2)cc1S(=O)(=O)N1CCCC1 = 2.54
8) Cc1cc(=O)oc2cc(OCC(=O)OCC(=O)N3CCc4ccccc43)ccc12 = -4.55
9) CCCCCSc1nc2c(cnn2-c2ccccc2)c(=O)[nH]1 = -0.17
10) Nc1cccc(C(=O)O)c1 = 0.33

// switching to the query compound
[in] Given CN1CCc2c(sc3c2c(=O)n(-c2cccc(Cl)c2)c2nncn32)C1 , state its recorded inhibition.
[out] -5.41

###

Experiment: SK-BR-3 cell growth inhibitors, pilot screen, 24 h, human (AID 572);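 further: compound exposure lasted between 18 and 24 h rather than exactly 24 h; 100% = carrier-treated control wells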
Details: SK-BR-3 viability, CellTiter-Glo luminescence, at 10 µM, stronger effect = lower value
Value kind: viability (%)
Express it in %; write the number only.

[in] Given COc1ccccc1CNS(=O)(=O)c1cccc(S(=O)(=O)N2CCOCC2)c1 , state its recorded viability.
[out] 91.5

[in] O=C(Nc1ccc(F)cc1)N(CCCN1CCOCC1)Cc1cc2cc3c(cc2[nH]c1=O)OCO3 , same question.
[out] 85

[in] O=C(O)c1ccc(C2SCC(=O)N2Cc2ccccc2)cc1 (stereo not given) , same question.
[out] 95

[in] CCOC(=O)C1=C(N)OC2=C(C(=O)CC(C)(C)C2)C1c1ccoc1 (stereo not given) , same question.
[out] 80

[in] COc1cccc(CN2C(=O)C3(C(C#N)=C(N)OC4=C3C(=O)CCC4)c3ccccc32)c1 (stereo not given) , same question.
[out] 104

###

Assay: reversal of MRP1-mediated doxorubicin resistance, pilot screen, H69AR cells, doxorubicin co-treatment (AID 601)
Conditions: H69AR cells + 2 uM doxorubicin, CellTiter-Glo, 72 h; measured here: viability with 2 uM doxorubicin; at 10 µM; stronger effect = lower value
Kindly apply the following: Condition met if viability is less than 80%, Condition not met in every other case.

Completed entries (count: 6):
1. CCOC(=O)c1c(N)nn(C(=O)C(C)C)c1-c1ccccc1 = Condition not met
2. CN(C)c1cccc(N=C2C=C(N3CCOCC3)CC(C)(C)C2)c1 = Condition not met
3. CC1CC(C)CN(CC(=O)Nc2ccc(S(N)(=O)=O)cc2)C1 (configuration not stated) = Condition not met
4. O=C(Cn1c(C(=O)NCC2CCCO2)cc2sccc21)c1ccccc1 (configuration not stated) = Condition not met
5. Cc1nc(SCC(=O)Nc2cc(C)on2)c2c3c(sc2n1)CCCC3 = Condition met
6. Nc1nnc(-c2cc3ccccc3oc2=O)s1 = Condition not met

[in] Does the reported viability of the following molecule sit strictly below 80%? COC(=O)/C=c1/s/c(=C(/C#N)C(=O)N2CCOCC2)n(-c2ccccc2)c1=O
[out] Condition not met

[in] CCc1nnc(NC(=O)C2Cc3ccccc3CN2S(=O)(=O)c2cccs2)s1 (configuration not stated) , same question.
[out] Condition not met
